molecular target: human KDR (human, UniProt P35968 20-1356); assay: cell-based or functional assay
Sequence (P35968 20-1356): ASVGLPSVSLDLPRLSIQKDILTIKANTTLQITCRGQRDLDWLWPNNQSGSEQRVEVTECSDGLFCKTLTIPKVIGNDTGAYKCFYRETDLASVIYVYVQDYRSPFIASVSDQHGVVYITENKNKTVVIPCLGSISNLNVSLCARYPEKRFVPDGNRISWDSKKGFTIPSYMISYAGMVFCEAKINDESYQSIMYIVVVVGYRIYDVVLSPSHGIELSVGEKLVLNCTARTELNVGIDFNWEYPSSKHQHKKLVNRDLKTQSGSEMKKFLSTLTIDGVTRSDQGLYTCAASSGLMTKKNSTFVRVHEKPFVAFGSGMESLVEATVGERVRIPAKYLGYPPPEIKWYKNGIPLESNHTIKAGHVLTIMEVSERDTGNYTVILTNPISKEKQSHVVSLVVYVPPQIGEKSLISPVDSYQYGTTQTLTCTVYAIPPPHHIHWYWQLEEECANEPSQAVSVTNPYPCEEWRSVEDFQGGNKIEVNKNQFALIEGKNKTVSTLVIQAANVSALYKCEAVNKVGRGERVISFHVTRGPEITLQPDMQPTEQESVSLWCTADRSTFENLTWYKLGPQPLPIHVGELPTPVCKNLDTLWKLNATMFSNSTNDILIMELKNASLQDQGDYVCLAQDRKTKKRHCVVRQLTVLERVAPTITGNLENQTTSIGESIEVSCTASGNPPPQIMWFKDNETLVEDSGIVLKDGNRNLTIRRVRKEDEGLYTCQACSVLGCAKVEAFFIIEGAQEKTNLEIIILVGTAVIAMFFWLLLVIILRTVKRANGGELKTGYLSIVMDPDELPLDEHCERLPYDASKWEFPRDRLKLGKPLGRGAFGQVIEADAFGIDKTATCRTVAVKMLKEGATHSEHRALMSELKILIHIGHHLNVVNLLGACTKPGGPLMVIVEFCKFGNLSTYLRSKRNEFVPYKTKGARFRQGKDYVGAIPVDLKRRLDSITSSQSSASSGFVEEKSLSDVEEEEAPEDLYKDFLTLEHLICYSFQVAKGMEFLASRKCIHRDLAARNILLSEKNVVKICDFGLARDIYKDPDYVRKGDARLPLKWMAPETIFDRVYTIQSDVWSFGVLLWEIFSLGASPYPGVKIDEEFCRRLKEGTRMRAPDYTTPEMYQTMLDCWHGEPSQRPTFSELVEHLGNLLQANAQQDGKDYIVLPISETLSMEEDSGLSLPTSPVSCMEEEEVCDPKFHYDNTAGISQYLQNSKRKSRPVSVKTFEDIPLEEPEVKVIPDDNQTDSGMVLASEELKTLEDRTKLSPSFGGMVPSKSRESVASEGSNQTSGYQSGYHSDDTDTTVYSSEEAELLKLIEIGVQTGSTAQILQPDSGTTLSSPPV
// reported 6-keto Prostaglandin F1α release, Maximum Inhibition (% Inhibition), Average per item

Reference set (2 entries):
>  <binder>
32G7 (antibody, V domains shown, Fully human monoclonal antibody from a XenoMouse hybridoma (IgG2 or IgG4 strain), purified) VH: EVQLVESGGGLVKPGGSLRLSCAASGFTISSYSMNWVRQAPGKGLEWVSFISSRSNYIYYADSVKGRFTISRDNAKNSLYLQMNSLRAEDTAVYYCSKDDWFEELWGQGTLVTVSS VL: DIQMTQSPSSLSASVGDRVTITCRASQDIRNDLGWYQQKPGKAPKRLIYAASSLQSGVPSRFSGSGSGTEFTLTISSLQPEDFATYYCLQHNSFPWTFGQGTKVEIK

>  <reading>
42%

$$$$
>  <binder>
31E11 (antibody, V domains shown, Fully human monoclonal antibody from a XenoMouse hybridoma (IgG2 or IgG4 strain), purified) VH: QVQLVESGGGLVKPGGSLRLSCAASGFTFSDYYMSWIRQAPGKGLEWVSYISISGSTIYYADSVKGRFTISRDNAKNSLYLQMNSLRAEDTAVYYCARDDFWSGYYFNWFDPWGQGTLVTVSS VL: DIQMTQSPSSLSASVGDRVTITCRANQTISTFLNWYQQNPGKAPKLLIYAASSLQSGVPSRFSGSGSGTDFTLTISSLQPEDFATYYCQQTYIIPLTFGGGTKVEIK

>  <reading>
98%

$$$$

Attention now shifts to the item below.
Query :: Determine its reported 6-keto Prostaglandin F1α release, Maximum Inhibition (% Inhibition), Average: 32F4 (antibody, V domains shown, Fully human monoclonal antibody from a XenoMouse hybridoma (IgG2 or IgG4 strain), purified) VH: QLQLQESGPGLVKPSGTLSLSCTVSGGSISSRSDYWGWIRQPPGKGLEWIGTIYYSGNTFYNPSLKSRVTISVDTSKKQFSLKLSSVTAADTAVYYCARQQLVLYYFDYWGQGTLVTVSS VL: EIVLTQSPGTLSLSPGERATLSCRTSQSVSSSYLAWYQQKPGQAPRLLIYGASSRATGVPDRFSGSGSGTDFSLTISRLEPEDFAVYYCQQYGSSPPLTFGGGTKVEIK
Result :: 48%
